Taken from PubChem BioAssay (NCI).

For each record, write down the corresponding TGI.
System: OVCAR-3 ovarian
Assay: NCI tumour cell line growth inhibition, 48 h

Qu. Suppose we examine the compound `O=c1c(O)cccc2cc(O)c(O)c(O)c12` ; what TGI value has been reported?
Ans. 32.3 µM

Qu. Suppose we examine the compound C=C(C)CC1(O)C(=O)C(OCC)=C1OCC (stereo not drawn) ; what TGI value has been reported?
Ans. > 100 µM

Qu. Suppose we examine the compound `CCN1C2=NCCN2S(=O)(=O)c2ccccc21` ; what TGI value has been reported?
Ans. > 100 µM

Qu. Suppose we examine the compound `CN(C)CCSc1cccc(-c2cc(-c3cccc(SCCN(C)C)c3)nc(SCCN(C)C)n2)c1` ; what TGI value has been reported?
Ans. 21.8 µM

Qu. Suppose we examine the compound `Cc1cc(S(=O)(=O)/N=C(\[N-]S(=O)(=O)c2ccc(Cl)cc2)[n+]2ccc(N(C)C)cc2)c(S)cc1Cl` ; what TGI value has been reported?
Ans. > 100 µM

Qu. Suppose we examine the compound `COc1cc2c3c(n(CCCNCCCNCCCNCCCN)c(=O)c2cc1OC)-c1cc2c(cc1C3=O)OCO2` ; what TGI value has been reported?
Ans. 3.88 µM

Qu. Suppose we examine the compound `COc1ccc2c(c1)/C(=C\c1c(C)nc3sc(C)cn13)C(=O)N2` ; what TGI value has been reported?
Ans. 3.93 µM

Qu. Suppose we examine the compound `Cc1nc(CN2CCCCC2)c(O)c(=O)[nH]1` ; what TGI value has been reported?
Ans. > 100 µM

Qu. Suppose we examine the compound C=C1c2[nH]c3ccccc3c2C2C(CC)C1CCN2C (stereo not drawn) ; what TGI value has been reported?
Ans. > 100 µM

Qu. Suppose we examine the compound `Cc1cc(Nc2c3ccccc3nc3ccccc23)ccc1NS(C)(=O)=O` ; what TGI value has been reported?
Ans. 20.1 µM

Qu. Suppose we examine the compound `CC(=O)c1ccc2c(ccc(=O)n2C)c1` ; what TGI value has been reported?
Ans. > 100 µM

Qu. Suppose we examine the compound O=c1[nH]c2cc([N+](=O)[O-])ccc2nc1/C(=N/Nc1ccccc1)C(O)c1ccc(C(O)/C(=N\Nc2ccccc2)c2cnc3cc([N+](=O)[O-])ccc3n2)cc1 (stereo not drawn) ; what TGI value has been reported?
Ans. > 100 µM

Qu. Suppose we examine the compound `CCOC(=O)C(=O)Nc1ccc(Cl)cc1C` ; what TGI value has been reported?
Ans. > 100 µM

Qu. Suppose we examine the compound `CCOC(=O)C(C(=O)c1ccccc1C(=O)OC)=P(c1ccccc1)(c1ccccc1)c1ccccc1` ; what TGI value has been reported?
Ans. > 10 µM

Qu. Suppose we examine the compound `CC(=O)[O-].[Mn+3].[O-]c1ccccc1C=NCCN=Cc1ccccc1[O-]` ; what TGI value has been reported?
Ans. > 100 µM

Qu. Suppose we examine the compound `O=C1NC(N2CCCCC2)=N/C1=C\c1cccs1` ; what TGI value has been reported?
Ans. > 100 µM

Qu. Suppose we examine the compound `Fc1ccc(-c2ncn(C3CCNCC3)c2-c2ccnc(Oc3ccc(F)c(F)c3)n2)cc1` ; what TGI value has been reported?
Ans. > 14.4 µM

Qu. Suppose we examine the compound CC(=O)C1C(=O)NC(=O)C1=O (stereo not drawn) ; what TGI value has been reported?
Ans. > 100 µM

Qu. Suppose we examine the compound `O=C(Cc1csc(N=Nc2c(O)[nH]c3ccccc23)n1)Nc1ccccc1` ; what TGI value has been reported?
Ans. 93.3 µM

Qu. Suppose we examine the compound `O=[N+]([O-])c1ccccc1NC1c2ccccc2Oc2ccccc21` ; what TGI value has been reported?
Ans. > 100 µM

Qu. Suppose we examine the compound `CC1(C)OB(O)OC1(C)C` ; what TGI value has been reported?
Ans. > 100 µM

Qu. Suppose we examine the compound `Cc1ccc(N=N/C(=N/NC(=O)c2cc(Cl)ccc2C(=O)c2ccccc2)c2ccc(N(CCC#N)CCC#N)cc2C)cc1` ; what TGI value has been reported?
Ans. 16.4 µM

Qu. Suppose we examine the compound `OC[C@]1(n2nc3ccccc3n2)OC[C@@H]1c1ccccc1` ; what TGI value has been reported?
Ans. 71.2 µM

Qu. Suppose we examine the compound `N#CSc1c[nH]c2ccc(/C=C/C(=O)/C=C(/C=C/c3ccc4[nH]cc(SC#N)c4c3)OB(F)F)cc12` ; what TGI value has been reported?
Ans. 0.762 µM

Qu. Suppose we examine the compound `O=C(Nc1nn(C(=O)c2ccc(Cl)cc2)c(=O)s1)c1ccc(Cl)cc1` ; what TGI value has been reported?
Ans. > 100 µM

Qu. Suppose we examine the compound COc1ccc(/C=C2\CC(C)CC3C2=NN(C(C)=O)C3c2ccc(OC)cc2)cc1 (stereo not drawn) ; what TGI value has been reported?
Ans. 42.4 µM

Qu. Suppose we examine the compound `CC(=O)Oc1ccc2c(c1)oc1c3ccc(OC(C)=O)cc3n(C)c(=O)c21` ; what TGI value has been reported?
Ans. > 100 µM

Qu. Suppose we examine the compound `O=C(O)Cc1ccc(Oc2nc3ccccc3nc2C(=O)O)cc1` ; what TGI value has been reported?
Ans. > 100 µM

Qu. Suppose we examine the compound `O=C(O)CCC/C=C\C[C@H]1C=CC(=O)/C1=C/C[C@@H](O)CCc1cccc(C(F)(F)F)c1` ; what TGI value has been reported?
Ans. 5.61 µM

Qu. Suppose we examine the compound `Clc1ccc(C2=Nn3c(nnc3-c3cc(Cl)cc(Cl)c3Cl)SC2)cc1` ; what TGI value has been reported?
Ans. 50.8 µM

Qu. Suppose we examine the compound `CC1(C)CC23CC(C)(C)c4cccc(c42)OCc2ccc4ccc5ccc(nc5c4n2)COc2cccc1c23` ; what TGI value has been reported?
Ans. > 50 µM

Qu. Suppose we examine the compound `O=S(=O)(SCc1ccccc1)C(c1ccccc1)c1ccccc1` ; what TGI value has been reported?
Ans. > 100 µM

Qu. Suppose we examine the compound `O=[N+]([O-])/C=C/c1cc2ccccc2[nH]1` ; what TGI value has been reported?
Ans. 28.2 µM
